Kindly state Plant response rating (0 to 100), Giant foxtail for each of the entries shown.
# Tested on: giant foxtail
# Method: Test C preemergence/postemergence greenhouse plant response rating 0 to 100
# Assay type: in vivo, Setaria faberii
# Applied Conditions: Rate 16 g/ha; POSTEMERGENCE
Reply with just the number.

Ask: Reported Plant response rating (0 to 100), Giant foxtail for giant foxtail, given Fc1cc(Cl)c(OCCCl)cc1-c1nn2c(c1Cl)CCCC2 ?
Result: 40

Ask: Further, for CC(C)COc1cc(-c2nn3c(c2Cl)CCCC3)c(F)cc1Cl ?
Result: 20

Ask: Further, for COC(=O)C(C)Oc1cc(-c2nn3c(c2Cl)CCCC3)c(F)cc1Cl (centres unmarked) ?
Result: 60

Ask: Further, for C#CCOc1cc(-c2nn3c(c2Br)CCCC3)c(F)cc1Cl ?
Result: 40

Ask: Further, for C#CC(C)Oc1cc(-c2nn3c(c2Cl)CCCC3)c(F)cc1Cl (centres unmarked) ?
Result: 50

Ask: Further, for COC(=O)c1cc(-c2nn3c(c2Cl)CCCC3)c(F)cc1Cl ?
Result: 50

Ask: Further, for CC(C)N1C(=O)COc2cc(F)c(-c3nn4c(c3Cl)CCCC4)cc21 ?
Result: 30

Ask: Further, for CCOC(=O)COc1cc(-c2nn3c(c2Cl)CCCC3)c(F)cc1Cl ?
Result: 30

###

Kindly state Plant response rating, Cheatgrass for each of the entries shown.
# System: cheatgrass
# Method: Test B preemergence/postemergence greenhouse plant response rating 0 to 10
# Format: in vivo, Bromus secalinus
# Applied Conditions: PREEMERGENCE, Rate 10 g/ha; 0 to 10 scale
Reply with just the number.

Ask: Give its Plant response rating, Cheatgrass value. Item: COCN1C(=O)COc2cc(F)c(-c3nn4c(c3Cl)CCCC4)cc21
Result: 1

Ask: Further, for CCN1C(=O)COc2cc(F)c(-c3nn4c(c3Cl)CCCC4)cc21 ?
Result: 1

Ask: Further, for CCCN1C(=O)COc2cc(F)c(-c3nn4c(c3Cl)CCCC4)cc21 ?
Result: 2

Ask: Further, for COCCN1C(=O)COc2cc(F)c(-c3nn4c(c3Cl)CCCC4)cc21 ?
Result: 3

Ask: Further, for CC(C)N1C(=O)COc2cc(F)c(-c3nn4c(c3Cl)CCCC4)cc21 ?
Result: 2

Ask: Further, for COCN1C(=O)COc2cc(F)c(-c3nn4c(c3Br)CCCC4)cc21 ?
Result: 2

Ask: Further, for C#CCOC(=O)COc1cc(-c2nn3c(c2Cl)CCCC3)c(F)cc1Cl ?
Result: 0

###

Kindly state Plant response rating (0 to 10 scale), Bedstraw for each of the entries shown.
# System: bedstraw
# Method: Test B preemergence/postemergence greenhouse plant response rating 0 to 10
# Assay type: in vivo, Galium aparine
# Applied Conditions: PREEMERGENCE, Rate 200 g/ha
Reply with just the number.

Ask: Give its Plant response rating (0 to 10 scale), Bedstraw value. Item: CON=C(C)c1cc(-c2nn3c(c2Cl)CCCC3)c(F)cc1Cl
Result: 9

Ask: Further, for CC(C)OC(=O)COc1cc(-c2nn3c(c2Br)CCCC3)c(F)cc1Cl ?
Result: 1

Ask: Further, for Oc1cc(-c2nn3c(c2Cl)CCCC3)c(Cl)cc1Cl ?
Result: 2

Ask: Further, for COCOc1cc(-c2nn3c(c2Cl)CCCC3)c(F)cc1Cl ?
Result: 9

Ask: Further, for CC(C)Oc1cc(-c2nn3c(c2Cl)CCCC3)c(Cl)cc1Cl ?
Result: 6

Ask: Further, for CCOC(=O)COc1cc(-c2nn3c(c2Cl)CCCC3)c(Cl)cc1Cl ?
Result: 9

Ask: Further, for COCCOc1cc(-c2nn3c(c2Cl)CCCC3)c(Cl)cc1Cl ?
Result: 8

Ref: patent US6358885B1
